Values were extracted from PubChem BioAssay (NCI).

- Tested on: RPMI-8226 leukemia
- test-method-notes: NCI-60 one-dose screen, 48 h
- condition-notes: 10 µM unless noted
The panel holds about 83,000 compounds, 20% with a hit somewhere; the sample as a whole holds those more often. Calls of active or inactive are those of the source. How the source made its calls: active means growth percent below 10; inactive means the rest.
Permitted responses: active, inactive

Given OCCNCCNC(Cc1ccc(Cl)cc1)c1ccccc1 (configuration not stated) , state the outcome it received in this test. inactive

For O=c1c2c3c(sc2n2c(-c4cc(-c5ccccc5)no4)nnc2n1Cc1ccccc1)CCCC3 , which call appears in the assay record? inactive

Outcome? O=C(/C=C/c1ccccc1)c1ccc(Nc2nc(Nc3ccc(F)cc3)nc(Nc3ccc(Cl)cc3)n2)cc1 active

Tell me the recorded outcome of this test for COc1ccc(-c2nc(-c3cn(C)c4ncccc34)cs2)cc1 . active

So what was the verdict on CC1(C)N=C(N)N=C(N)N1c1ccc(CCCCc2ccccc2)c(Cl)c1 in this test? active

So what was the verdict on Cc1ccc(C2CC(c3nc(-c4ccc(Cl)cc4)oc3C)=NN2C(=O)c2ccncc2)cc1 (configuration not stated) in this test? inactive

Per the records of this test, what outcome belongs to CN(Cc1ccccc1)c1nc(Cl)c(C2CC(c3ccccc3)=NN2c2ccccc2)s1 (configuration not stated) ? inactive

I'd appreciate the recorded outcome for C=C1CC[C@@H]2C(C)(C)[C@@H](O)CC[C@@]2(C)[C@@H]1COc1ccc2ccc(=O)oc2c1 from this test. inactive

More entries:
Returns: the outcome recorded for COC(=O)c1ccc(NC(=O)Nc2ccc(C(=O)OC)cc2)cc1 in this assay. inactive

Called result for NC1=Nc2cc(OCCCCN3Cc4ccccc4C3)c(OCC3CC3)cc2C12CCCC2 active

Outcome? CC(C)(C)n1cc(-c2ccnc(NCCCNS(=O)(=O)c3cccc4ccccc34)c2)c(-c2cccc(F)c2)n1 inactive

Recorded test outcome, item C=C(C)[C@@H]1CC[C@]2(C)[C@H](CC=C3[C@@H]4CC(C)(C)CC[C@]4(CO)CC[C@]32C)[C@@]1(C)CCCN active

Outcome? CN(C)c1ccc(/C=C(\C#N)c2cc3ccccc3[nH]2)cc1 active

Answer briefly: the call reported for CN1CCN(c2ccc(NC(=O)c3cncnc3Nc3ccc(OCc4cccc(F)c4)c(Cl)c3)cc2)CC1 in this assay. inactive

Outcome logged for COc1ccc(/C=C/C(=O)c2ccc(NC(=O)CSc3nc4c([nH]3)c(=O)n(C)c(=O)n4C)cc2)cc1OC in this assay: inactive
